B1: PTPRD (parent)
chain: MVHVARLLLLLLTFFLRTDAETPP

- Variants of: B1
- ASSAY_REMARKS: protein stability index of a GFP-peptide fusion (GPS, HEK-293T) (PSI 1-6); higher = more stable;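 also: lentivirally expressed fusions sorted by FACS into six bins by GFP to DsRed ratio, PSI derived from sequencing read proportions per bin multiplied by bin number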
- DETAILS: c terminus: a fixed tail appended
protein stability index values, listed per item
I only need the number, thanks.

For orientation, consider the following solved cases.
- SEQUENCE_CHANGE: "L10C"
  EXPERIMENTAL_READOUT: "protein stability index"
  READOUT_VALUE: 2.04
- SEQUENCE_CHANGE: "T13R"
  EXPERIMENTAL_READOUT: "protein stability index"
  READOUT_VALUE: 2.04
- SEQUENCE_CHANGE: "T22N"
  EXPERIMENTAL_READOUT: "protein stability index"
  READOUT_VALUE: 2.05
- SEQUENCE_CHANGE: "V4C"
  EXPERIMENTAL_READOUT: "protein stability index"
  READOUT_VALUE: 3.07
- SEQUENCE_CHANGE: "A5C"
  EXPERIMENTAL_READOUT: "protein stability index"
  READOUT_VALUE: 2.97
- SEQUENCE_CHANGE: "M1F"
  EXPERIMENTAL_READOUT: "protein stability index"
  READOUT_VALUE: 1.96

# protein stability index lookup, item "L7N"
3.02

// same read-out, input: "D19A"
2.91

// same read-out, input: "L12R"
2.03

// same read-out, input: "R17N"
3.08

// same read-out, input: "T22V"
3.03
